Cited source for all entries: the Immune Epitope Database (IEDB)

system-name: HLA-B*27:05
procedure-text: IEDB peptide-MHC binding, purified MHC/direct/fluorescence; filed as Kd, often an IC50 or EC50 that approximates it; bounds were set here for any values at or beyond the usual limits of such assays
condition-notes: source organism: Giardia lamblia ATCC 50803
pKd: −log10 of the molar value.
endpoint-name: pKd

> print(dat)
   input.sequence  bound.sign  value
1       YRYKMPVME           =   6.91
2       VAAKGAPAL           ≤   4.70

====

system-name: HLA-A*01:01
procedure-text: IEDB peptide-MHC binding, purified MHC/competitive/radioactivity; filed as Kd, often an IC50 or EC50 that approximates it; bounds were set here for any values at or beyond the usual limits of such assays
condition-notes: source organism: Dengue virus 2 Jamaica/1409/1983
pKd: −log10 of the molar value.
endpoint-name: pKd

> print(dat)
   input.sequence  value
1      STSLSVSLVL   4.92

====

system-name: HLA-B*40:01
procedure-text: IEDB peptide-MHC binding, purified MHC/direct/fluorescence; filed as Kd, often an IC50 or EC50 that approximates it; bounds were set here for any values at or beyond the usual limits of such assays
condition-notes: source organism: Brucella abortus 2308
endpoint-name: Kd

> print(dat)
   input.sequence  endpoint.name    value
1       RVYKNYDPR             Kd  ≥ 20 µM

====

system-name: HLA-A*03:01
procedure-text: IEDB peptide-MHC binding, purified MHC/competitive/fluorescence; bounds were set here for any values at or beyond the usual limits of such assays
condition-notes: source organism: Vaccinia virus Copenhagen
In this section we review reported IC50 values for a set of sequences.
endpoint-name: IC50 (µM)

> print(dat)
   input.sequence  endpoint.name  bound.sign  value
1       KLYKNKSKQ           IC50           =   3.01
2       AIITPIVFY           IC50           ≥    153

====

system-name: HLA-C*12:03
procedure-text: IEDB peptide-MHC binding, purified MHC/direct/fluorescence; filed as Kd, often an IC50 or EC50 that approximates it; bounds were set here for any values at or beyond the usual limits of such assays
condition-notes: source organism: Escherichia coli 536
endpoint-name: Kd (nM)

> print(dat)
   input.sequence  value
1       FMFDSDEAM    174

====

system-name: HLA-A*29:02
procedure-text: IEDB peptide-MHC binding, purified MHC/competitive/fluorescence; filed as Kd, often an IC50 or EC50 that approximates it; bounds were set here for any values at or beyond the usual limits of such assays
condition-notes: source organism: Bacillus cereus G9241
endpoint-name: Kd

> print(dat)
   input.sequence    value
1       DEEAINLFH  ≥ 20 µM

====

system-name: HLA-A*02:16
procedure-text: IEDB peptide-MHC binding, purified MHC/direct/fluorescence; filed as Kd, often an IC50 or EC50 that approximates it; bounds were set here for any values at or beyond the usual limits of such assays
condition-notes: source organism: Orthohantavirus tulaense
endpoint-name: Kd

> print(dat)
   input.sequence  endpoint.name    value
1       VVDALRNIY             Kd  ≥ 20 µM

====

system-name: HLA-B*27:05
procedure-text: IEDB peptide-MHC binding, purified MHC/direct/fluorescence; filed as Kd, often an IC50 or EC50 that approximates it; bounds were set here for any values at or beyond the usual limits of such assays
condition-notes: source organism: Influenza A virus (A/Hong Kong/213/2003(H5N1))
endpoint-name: Kd

> print(dat)
   input.sequence    value
1       CFMYSDFHF  ≥ 20 µM

====

system-name: HLA-B*15:42
procedure-text: IEDB peptide-MHC binding, purified MHC/competitive/fluorescence; filed as Kd, often an IC50 or EC50 that approximates it; bounds were set here for any values at or beyond the usual limits of such assays
condition-notes: source organism: Bacillus anthracis str. A2012
endpoint-name: Kd

> print(dat)
   input.sequence   value
1       WMYYPRSPV  ≥ 5 µM

====

system-name: HLA-A*02:01
procedure-text: IEDB peptide-MHC binding, purified MHC/competitive/radioactivity; filed as Kd, often an IC50 or EC50 that approximates it; bounds were set here for any values at or beyond the usual limits of such assays
condition-notes: source organism: Homo sapiens
pKd: −log10 of the molar value.
endpoint-name: pKd

> print(dat)
   input.sequence  value
1       FLDEFMEAV   8.08

====

system-name: HLA-B*53:01
procedure-text: IEDB peptide-MHC binding, purified MHC/competitive/radioactivity; filed as Kd, often an IC50 or EC50 that approximates it; bounds were set here for any values at or beyond the usual limits of such assays
condition-notes: source organism: Vaccinia virus WR
endpoint-name: log10(Kd) (log10 of the value in µM)

> print(dat)
   input.sequence  value
1      CPASKKESVI  -1.03
2       VPAAIMMIL   1.29
3      IPSLFIESSI   0.30
4       LPTLFGRGV  -0.02
5      GPMPYMISTY  -0.57
6      VPLPCQLMYA  -0.34

====

system-name: HLA-A*11:01
procedure-text: IEDB peptide-MHC binding, purified MHC/competitive/radioactivity; filed as Kd, often an IC50 or EC50 that approximates it; bounds were set here for any values at or beyond the usual limits of such assays
condition-notes: source organism: Vaccinia virus Copenhagen
endpoint-name: Kd

> print(dat)
   input.sequence  system.name      value
1       LMDSIFVST  HLA-A*11:01  ≥ 77.9 µM

====

system-name: HLA-A*01:01
procedure-text: IEDB peptide-MHC binding, purified MHC/competitive/radioactivity; filed as Kd, often an IC50 or EC50 that approximates it; bounds were set here for any values at or beyond the usual limits of such assays
condition-notes: source organism: Mammarenavirus brazilense
endpoint-name: Kd (nM)

> print(dat)
   input.sequence  endpoint.name  value
1      LLSEMLNKEY             Kd    446

====

system-name: HLA-A*02:01
procedure-text: IEDB peptide-MHC binding, purified MHC/competitive/radioactivity; filed as Kd, often an IC50 or EC50 that approximates it; bounds were set here for any values at or beyond the usual limits of such assays
condition-notes: source organism: Vaccinia virus WR
pKd: −log10 of the molar value.
endpoint-name: pKd

> print(dat)
   input.sequence   value
1       AFVRFSTDK  ≤ 4.11

====

system-name: HLA-A*02:19
procedure-text: IEDB peptide-MHC binding, purified MHC/competitive/fluorescence; filed as Kd, often an IC50 or EC50 that approximates it; bounds were set here for any values at or beyond the usual limits of such assays
condition-notes: source organism: Brucella suis 1330
pKd: −log10 of the molar value.
endpoint-name: pKd

> print(dat)
   input.sequence   value
1       TEWPQLKVA  ≤ 4.70

====

system-name: HLA-A*29:02
procedure-text: IEDB peptide-MHC binding, purified MHC/direct/fluorescence; filed as Kd, often an IC50 or EC50 that approximates it; bounds were set here for any values at or beyond the usual limits of such assays
condition-notes: source organism: Mycobacterium tuberculosis C
pKd: −log10 of the molar value.
endpoint-name: pKd

> print(dat)
   input.sequence   value
1       IIRTENRPL  ≤ 4.70

====

Listing: IC50 of selected sequences
system-name: HLA-A*02:01
procedure-text: IEDB peptide-MHC binding, purified MHC/competitive/fluorescence; bounds were set here for any values at or beyond the usual limits of such assays
condition-notes: source organism: Homo sapiens
endpoint-name: IC50

> print(dat)
   input.sequence  endpoint.name    value
1     RQSSGSSSSGF           IC50  ≥ 20 µM
2     LVTMGTGTFGR           IC50  ≥ 20 µM
3      ELFARSSDPR           IC50  ≥ 20 µM

====

system-name: HLA-B*51:01
procedure-text: IEDB peptide-MHC binding, purified MHC/competitive/radioactivity; filed as Kd, often an IC50 or EC50 that approximates it; bounds were set here for any values at or beyond the usual limits of such assays
condition-notes: source organism: Triticum aestivum
endpoint-name: Kd (nM)

> print(dat)
   input.sequence  value
1        QPFPQPQL   2160
2      IPEQSQCQAI    774
3      QPFPQPQLPY   1370

====

system-name: HLA-B*57:01
procedure-text: IEDB peptide-MHC binding, purified MHC/competitive/radioactivity; filed as Kd, often an IC50 or EC50 that approximates it; bounds were set here for any values at or beyond the usual limits of such assays
condition-notes: source organism: Dengue virus 2 Jamaica/1409/1983
This section presents sequences with their documented Kd values.
endpoint-name: Kd

> print(dat)
   input.sequence    value
1       RVWIQENPW  7.87 nM
2      TASGKLITEW  49.7 nM
3      STSLSVSLVL   667 nM
